Hey, just so you know, these numbers are from PubChem BioAssay (NCI).

Kindly state TGI for each of the entries shown.
tested on: COLO 205 colon; assay: NCI tumour cell line growth inhibition, 48 h
Give bare numbers, in µM.

INSERT INTO assay_data (sample_smiles, assay_result) VALUES
  ('CC(C)(C)OC(=O)n1cc(CNC(=S)Nc2ccccc2)c2ccccc21', 23.4),
  ('Brc1cccc(-c2cc(-c3ccc4c(c3)OCCO4)[nH]n2)c1', 26);

Switching to the query record.
Fill in the blank: the reported TGI of CNC(=O)c1ccccc1CC1(O)c2ccccc2Oc2ccccc21 is ____.
15.9

----------
test system: MDA-MB-435
Outcomes you can answer with include only these: True = active, False = inactive

Example results:
INSERT INTO measurements (compound, class_label) VALUES
  ('CCOc1ccc(S(=O)(=O)/N=C2\C=C(SCC(=O)O)C(=O)c3ccccc32)cc1', 'False'),
  ('O=C(CCN1CCN(c2cnc3ccccc3n2)CC1)c1csc2ccccc12', 'False'),
  ('O=C(Nc1cccc(-n2ccc3c(NC(=O)c4ccccc4)nccc32)c1)c1cccc(C(F)(F)F)c1', 'True'),
  ('CCC(C)C1NC(=O)c2nc(oc2-c2ccccc2)-c2csc(n2)-c2csc(n2)-c2nc(oc2C)-c2coc(n2)CNC(=O)C(C(C)CC)NC1=O (stereo unspecified)', 'True');

For this compound, state the assay outcome: O=C(CSc1nc2ccc([N+](=O)[O-])cc2[nH]1)Nc1ccc(F)c(Cl)c1
False

COc1cc2c3c(cccc3c1)C(=O)N(CCN1CCCC1)C2=O , same question.
False
